Kindly state COL1A1 mRNA fold change for each of the entries shown.
system: primary human hepatic stellate cells (donor 1); assay: COL1A1 mRNA fold change vs DMSO (normalised to PSMB2); higher = more COL1A1 expression, active = hit call of the paper; conditions: 48 h
Structures can show the parent of a compound that is named as a salt.
Numbers only.

The following compounds have reported results that may help.
compound="Cc1cnc(-c2cnc(NCCNc3ccc(C#N)cn3)nc2-c2ccc(Cl)cc2Cl)[nH]1 (33.3333 µM)" experimental_readout="COL1A1 mRNA fold change" quantitative_result=1.04
compound="C[C@@H]1CN(CCCn2c3ccccc3c3ccccc32)C[C@H](C)N1 [Rimcazole dihydrochloride] (33.3333 µM)" experimental_readout="COL1A1 mRNA fold change" quantitative_result=0.14
compound="CCN(CC)CC#CCOC(=O)C(O)(c1ccccc1)C1CCCCC1 (stereo not drawn) [Oxybutynin chloride] (16.9333 µM)" experimental_readout="COL1A1 mRNA fold change" quantitative_result=0.755

Value sought for every listed compound: COL1A1 mRNA fold change.
1. CCCSc1ccc2[nH]c(NC(=O)OC)nc2c1 [Albendazole] (33.3333 µM)
2. CCC/C=C\C=C/C(=O)N[C@@H](CC(N)=O)C(=O)NC(CC(N)=O)C(=O)N[C@@H](C(=O)N[C@H](CCCN)C(=O)N[C@@H](C(=O)N[C@@H](C(=O)N[C@@H](C(=O)N[C@H](C(=O)N[C@@H](Cc1ccccc1)C(=O)N[C@H](CCCN)C(=O)NC(C(=O)N[C@H](C(=O)NC(C(=O)NCC(=O)N[C@@H](CC(C)C)C(=O)N[C@H](C)C(=O)NC(C(=O)O)C1CCC(O)C(Cl)C1)C1CCC(O)CC1)[C@H](C)O)C1CCC(O)CC1)[C@H](C)O)C1CCC(O)CC1)C1CCC(O)CC1)[C@H](C)O)C1CCC(O)CC1 (stereo partly drawn) (33.3333 µM)
3. COc1cc2nc(N3CCCN(C)CC3)nc(NC3CCN(Cc4ccccc4)CC3)c2cc1OC (3.33333 µM)
4. CCCCCCCCc1ccc(CCC(N)(CO)CO)cc1 [Fingolimod (FTY720) HCl] (11.1 µM)
5. CN1CCC(CNc2ccc3ncc(-c4cccc(OC(F)(F)F)c4)n3n2)CC1 (6.66667 µM)

1. 0.881
2. 1.59
3. 0.0424
4. 0.392
5. 0.552

The origin of these recorded values is the supplement of paper PMC9135407.
